# Test system: EKVX
# Test: NCI tumour cell line growth inhibition, 48 h
The source made the active and inactive calls. No stated cut-off is given here; in the data, active = GI50 up to about 1.1 µM and inactive = higher.
Write down one outcome, taken from active, inactive

Q: // param item: CCOC(=O)c1c(CN2CCCC2)n(-c2ccccc2)c2cc(Br)c(O)cc12 ; yields the recorded call
Result: inactive

Q: What about CCOc1ccccc1/N=N/C1C(=O)N(C(=O)CC(=O)Nc2ccccc2Cl)N=C1C (configuration not stated) ?
Result: inactive

Q: What about COC(=O)/C(=N\NC(N)=O)C(C(=O)C(=O)Nc1ccccc1OC)c1nc2ccc([N+](=O)[O-])cc2nc1O (configuration not stated) ?
Result: inactive

Q: What about CCN1CC(C)Cn2c(=O)[nH]c3cc(Br)cc1c32 (configuration not stated) ?
Result: inactive

Q: What about N=C(N)NS(=O)(=O)c1ccc(Nc2c3ccccc3nc3c(C(=O)NNCCO)cccc23)cc1 ?
Result: active

Q: What about O=C(Nc1ccc(Cl)c(Cl)c1)N1N=C2c3ccccc3CCC2C1c1ccc(Cl)cc1 (configuration not stated) ?
Result: inactive

Q: What about CCC(=O)Nc1ccc(NC(C#N)c2cccc(Oc3ccccc3)c2)cc1 (configuration not stated) ?
Result: inactive
